Provenance of the data: ChEMBL document CHEMBL3988442

Can you tell me Percent Effect for the items I'm about to list?
test system: Trypanosoma cruzi; assay: Trypanosoma cruzi phosphomannomutase and mannose-1-phosphate guanylyltransferase assay; format: functional; set-up: scale not given: direction of the effect not stated beside the values; conditions: 10 µM
Use % as the unit, but write only the number.

Qu. Retrieve Percent Effect on Trypanosoma cruzi; query COC(=O)c1sccc1S(=O)(=O)N1CCC(Oc2cccnn2)CC1
Ans. -3.33

Qu. Give Percent Effect for O=C(NCc1ccccc1)[C@H]1C[C@@H]2CN(S(=O)(=O)C3CC3)C[C@H]1O2 tested on Trypanosoma cruzi.
Ans. -3.99

Qu. Answer briefly: Percent Effect recorded on Trypanosoma cruzi for CO[C@@H]1CC[C@H]2[C@H]1OCCN2C(=O)COc1ccc(F)cc1
Ans. -4.01

Qu. Provide Percent Effect, tested on Trypanosoma cruzi, for CCCNCc1cc2c(C)cc(C)cc2n2c(=O)n(C)nc12 .
Ans. 4.94

Qu. Find Percent Effect for CCc1nc(CN2CCN(C(=O)c3cnccn3)CC2)cs1 on Trypanosoma cruzi and write it down.
Ans. 4.92

Qu. Please indicate recorded Percent Effect of Cc1ncsc1C(=O)NC1CCN(Cc2ccc(C#N)cc2)CC1 measured with Trypanosoma cruzi.
Ans. 1.12

Qu. State measured Percent Effect of the compound CCc1ccc(S(=O)(=O)N2CCC3(CC(C(=O)NC)=NO3)C2)cc1 (stereo not drawn) with Trypanosoma cruzi.
Ans. 5.36

Qu. Report measured Percent Effect on Trypanosoma cruzi; entry: COCCNC(=O)Nc1ccc(-n2cncn2)c(F)c1
Ans. -4.7

Qu. Please tell me the measured Percent Effect for O=C(NCc1ccco1)[C@H]1C[C@H]2OCC[C@H]2N(C(=O)c2ccncc2)C1 ; system: Trypanosoma cruzi.
Ans. 0.193

Qu. Given CCn1ccnc1CN1CCCN(C(=O)c2cccn2C)CC1 , report its Percent Effect on Trypanosoma cruzi.
Ans. 14

Qu. Lab note: Trypanosoma cruzi assay, enter Percent Effect for CCN(CC)C(=O)c1nnc2ccc(N3CCOCC3)cc2n1 here
Ans. 7.27

Qu. Print Trypanosoma cruzi Percent Effect for CCOCC(O)CN1CCN(C(=O)c2ccccc2Cl)CC1 (stereo not drawn) .
Ans. 0

Qu. GET Percent Effect where system = Trypanosoma cruzi and item = Cc1ccc(Nc2nccc(C3CCCN(CC(=O)N(C)C)C3)n2)nc1 (stereo not drawn)
Ans. 5.51

Qu. Identify measured Percent Effect obtained with Trypanosoma cruzi for O=C(NCCCN1CCCCC1)c1ccc(-n2ccc3ccccc32)s1 .
Ans. 11.1

Qu. Provide Percent Effect, recorded with Trypanosoma cruzi, of COCc1noc(C2(c3ccc(Br)cc3)CCOCC2)n1
Ans. -6.95

Qu. Output reported Percent Effect of the compound CC(C)NC(=O)N1CCC2(C1)CN(c1ccsc1)C(=O)CN2C (stereo not drawn) on Trypanosoma cruzi.
Ans. -3.41

Qu. Provide Percent Effect, system Trypanosoma cruzi, entry Cc1ccc(CC(=O)N2Cc3nccn3CC(CN(C)C)C2)cc1 (stereo not drawn)
Ans. 0.198

Qu. Please report the measured Percent Effect for Cc1cnn(CC2CCCCN2Cc2nnc(-c3ccco3)o2)c1 (stereo not drawn) tested on Trypanosoma cruzi.
Ans. 3.11

Qu. Consider the compound CCn1ccnc1CNCC1CCCN1c1cc(NC)ncn1 (stereo not drawn) tested on Trypanosoma cruzi; state its Percent Effect.
Ans. -5.62

Qu. Param request: Percent Effect | system Trypanosoma cruzi | item Cc1ccc2c(c1)CCC21CCN(C(=O)CO)CC1
Ans. 6.79

Qu. // output Percent Effect; input Cc1cc(CN2CCN(CCOc3cccc(C#N)c3)CC2)no1 ; system Trypanosoma cruzi
Ans. -1.4

Qu. State Percent Effect on Trypanosoma cruzi. Entry: Cc1nccn1C1CCCN(C(=O)c2ccc3c(c2)NC(=O)CO3)C1 (stereo not drawn)
Ans. 4.43

Qu. Look up and report measured Percent Effect (Trypanosoma cruzi) for the following compound: Clc1ccc(-n2cc(CNC3CCc4ncnn4C3)cn2)cc1 (stereo not drawn)
Ans. -2.36

Qu. Quote Trypanosoma cruzi Percent Effect for entry c1cnnc(NCC2CN(CCN3CCCCC3)CCO2)c1 (stereo not drawn) .
Ans. 9.74

Qu. Give Percent Effect for CC(=O)NC(C)c1ccc(OCC2CC2)c(F)c1 (stereo not drawn) tested on Trypanosoma cruzi.
Ans. 3.21

Qu. Name the recorded Percent Effect of CN(C)CCN1CCC2(CCN(C(=O)c3ccc(F)cc3)CC2)C1=O , assay system Trypanosoma cruzi.
Ans. -5.44

Qu. // output Percent Effect; input N#Cc1c(C2CC2)cc(-c2ccc(O)cc2)nc1N ; system Trypanosoma cruzi
Ans. -1.46

Qu. Tell me its Percent Effect on Trypanosoma cruzi: COc1cccc(OCC2CCCN(C(C)=O)C2)c1 (stereo not drawn)
Ans. -0.395

Qu. Look up and report Percent Effect, with Trypanosoma cruzi as system, for Cc1cc(C(=O)N2CCCCC2C)ccc1NCCCO (stereo not drawn)
Ans. -3

Qu. Under Trypanosoma cruzi, report Percent Effect for Cc1cccn2cc(CC(=O)N3CCCC(n4cncn4)C3)nc12 (stereo not drawn)
Ans. 6.1

Qu. Enter Percent Effect (test system Trypanosoma cruzi) for CN(C)C(=O)N1CCN(C(=O)C(c2ccccc2F)N(C)C)CC1 (stereo not drawn)
Ans. 6.71

Qu. Write down measured Percent Effect (Trypanosoma cruzi) for this compound. O=C(c1ccco1)N1CCOCC2(CCN(C3CCOCC3)C2)C1 (stereo not drawn)
Ans. -7.47

Qu. Fetch value of Percent Effect on Trypanosoma cruzi for O=C(CCc1cc2n(n1)CCN(Cc1ncc[nH]1)C2)N1CCCC1 .
Ans. 1.07

Qu. Fetch value of Percent Effect on Trypanosoma cruzi for CC(NC(=O)N1CCN(CCc2ccccc2)CC1)c1nncn1C (stereo not drawn) .
Ans. 3.41

Qu. System Trypanosoma cruzi. Read-out Percent Effect. Item O=S(=O)(NCCN1CCCCC1Cn1cncn1)c1ccccc1 (stereo not drawn) . Report value.
Ans. 1.68

Qu. Recall the reported Percent Effect of O=C(NCCNS(=O)(=O)c1ccc2c(c1)CCCC2)c1ccoc1 on Trypanosoma cruzi and write it down.
Ans. 3.41

Qu. For Trypanosoma cruzi, give the measured Percent Effect of the entry Cc1cc(C2CCCN(C(=O)c3ccc(C)[nH]c3=O)C2)n[nH]1 (stereo not drawn)
Ans. -1.04

Qu. Param request: Percent Effect | system Trypanosoma cruzi | item CC(C)(C)n1cc(C(=O)N2CCN(Cc3ccsc3)CC2)cn1
Ans. 7.71

Qu. State Percent Effect on Trypanosoma cruzi. Entry: COc1ccc2c(c1)OCC(CNC(=O)c1ccc(=O)n(C)c1)C2 (stereo not drawn)
Ans. 5.72

Qu. Provide measured Percent Effect on Trypanosoma cruzi for CCCN(C(=O)c1ccccn1)c1nc2c(s1)CCc1c-2cnn1C please.
Ans. 0.988

Qu. Name the value of Percent Effect reported for CCN1CC2(CC1=O)CN(Cc1cnn(C)c1)CCN(C(=O)C(C)C)C2 (stereo not drawn) when tested on Trypanosoma cruzi.
Ans. -1.17

Qu. Tell me its Percent Effect on Trypanosoma cruzi: c1nc(COCC2CC2)c2n1CCCN(CC1CC1)C2
Ans. -2.12

Qu. Retrieve Percent Effect on Trypanosoma cruzi; query Cc1cnn(C2CCCN(C(=O)c3cn4cccnc4n3)C2)c1 (stereo not drawn)
Ans. 1.04

Qu. Name the recorded Percent Effect of COC(=O)CN1CC(c2nc(Cc3ccccc3)no2)C1 , assay system Trypanosoma cruzi.
Ans. 2.35

Qu. State, for Trypanosoma cruzi, measured Percent Effect of the compound listed here: O=C(NCCN1CCC(c2cccs2)CC1)Nc1cccs1
Ans. 4.7

Qu. Write down the reported Percent Effect (system: Trypanosoma cruzi) of CCc1nc(C2CCCN2CCc2ccccn2)no1 (stereo not drawn)
Ans. 5.35

Qu. Please report the measured Percent Effect for CC(C)CNC(=O)c1c(-n2cnnn2)sc2c1CCC2 tested on Trypanosoma cruzi.
Ans. 0.0974

Qu. # return Percent Effect of CN(Cc1nccn1CC(F)(F)F)C(=O)c1ccc(F)cc1F (system: Trypanosoma cruzi)
Ans. -5.16
